- Test system: L. brasiliensis promastigotes
- TEST METHOD NOTES: Leishmanicidal activity against L. brasiliensis promastigotes (XTT)
Please respond with reported selectivity ratio at 72 h for every item in the list.
Numbers only.

>  <COMPOUND>
COc1ccc2c(c1)-c1cc(COC(=O)C3CCCCC3)ccc1C(C)(C)O2 [4i]

>  <selectivity ratio at 72 h>
2.1

$$$$
>  <COMPOUND>
COc1ccc2c(c1)-c1cc(C)ccc1C(C)(C)O2 [3a]

>  <selectivity ratio at 72 h>
1.4

$$$$
>  <COMPOUND>
COc1ccc2c(c1)-c1cc(COC(=O)C(C)(C)C)ccc1C(C)(C)O2 [4c]

>  <selectivity ratio at 72 h>
1.1

$$$$
>  <COMPOUND>
COc1ccc2c(c1)-c1cc(COC(=O)CCC3CCCC3)ccc1C(C)(C)O2 [4h]

>  <selectivity ratio at 72 h>
0.4

$$$$

The following compounds each have a reported value; give each one's selectivity ratio at 72 h.
1. COc1ccc2c(c1)-c1cc(CO)ccc1C(C)(C)O2 [compound 1]
2. COc1ccc2c(c1)-c1cc(COC(C)C)ccc1C(C)(C)O2 [3d]
3. CCCCCC(=O)OCc1ccc2c(c1)-c1cc(OC)ccc1OC2(C)C [4g]

Reply |
[0.5, 0.9, 1.9]

---

- Test system: T. cruzi epimastigotes
- TEST METHOD NOTES: Trypanocidal activity against T. cruzi epimastigotes (XTT)
- Format: cell-based, Trypanosoma cruzi
- CONDITION LABEL: mouse (RAW 264.7 cells) / Trypanosoma cruzi (epimastigotes), RAW cell IC50 / T. cruzi IC50; read-out: T. cruzi SI (selectivity index, cytotoxicity/anti-protozoal activity)
OBSERVABLE: selectivity ratio at 72 h
One number for each entry.

Reference set, count: 4
>  <SMILES STR>
CCCCCC(=O)OCc1ccc2c(c1)-c1cc(OC)ccc1OC2(C)C

>  <ASSAYED TARGET>
T. cruzi epimastigotes

>  <selectivity ratio at 72 h>
2.3

$$$$
>  <SMILES STR>
COc1ccc2c(c1)-c1cc(CNC(C)C)ccc1C(C)(C)O2

>  <ASSAYED TARGET>
T. cruzi epimastigotes

>  <selectivity ratio at 72 h>
0.4

$$$$
>  <SMILES STR>
COc1ccc2c(c1)-c1cc(CO)ccc1C(C)(C)O2

>  <ASSAYED TARGET>
T. cruzi epimastigotes

>  <selectivity ratio at 72 h>
1.7

$$$$
>  <SMILES STR>
COc1ccc2c(c1)-c1cc(COC(=O)CC(C)(C)C)ccc1C(C)(C)O2

>  <ASSAYED TARGET>
T. cruzi epimastigotes

>  <selectivity ratio at 72 h>
3.3

$$$$

The following compounds each have a reported value; give each one's selectivity ratio at 72 h.
1. COCc1ccc2c(c1)-c1cc(OC)ccc1OC2(C)C
2. COc1ccc2c(c1)-c1cc(C(=O)O)ccc1C(C)(C)O2
3. COc1ccc2c(c1)-c1cc(C)ccc1C(C)(C)O2
4. COC(=O)c1ccc2c(c1)-c1cc(OC)ccc1OC2(C)C

Reply |
[1.3, 4.4, 2, 1.2]

The following compounds each have a reported value; give each one's selectivity ratio at 72 h.
1. COc1ccc2c(c1)-c1cc(COC(C)=O)ccc1C(C)(C)O2
2. COc1ccc2c(c1)-c1cc(C(C)=O)ccc1C(C)(C)O2

Reply |
1. 2.3
2. 1.5

Ask | Lab note: record selectivity ratio at 72 h of `CCCC(=O)OCc1ccc2c(c1)-c1cc(OC)ccc1OC2(C)C` tested on T. cruzi epimastigotes.
Reply | 6.4
